Please respond with reported composite z-score for every item in the list.
- Tested on: glycogen synthase kinase-3 (GSK3A per assay name; protocol says GSK3B)
- Test method notes: GSK3 binders on small-molecule microarrays, primary screen, biochemical, small-molecule microarray, 635 nm fluorescence, GSK3A (AID 1103); further: the record names both GSK3A and GSK3B
- Condition set: small-molecule microarray binding, fluorescence 635 nm; higher = more signal
Please respond with just the number, no unit label.

Query: Lab request: please report composite z-score under test system glycogen synthase kinase-3 (GSK3A per assay name; protocol says GSK3B) for "O=C1O[C@H](c2ccccc2)[C@H](c2ccccc2)N2[C@H]1[C@@H](C(=O)Nc1nc3ccccc3s1)[C@]1(C(=O)Nc3ccc(C#CC4(O)CCCCCC4)cc31)[C@H]2c1ccccc1OCCO"
Reply: 1.33

Query: Request - read-out composite z-score | tested on glycogen synthase kinase-3 (GSK3A per assay name; protocol says GSK3B) | compound "CCOC(=O)[C@H]1[C@@H]2C(=O)N3CCC[C@H]3[C@H](O[Si](C(C)C)(C(C)C)C(C)C)[C@H]2C=C2CCN(S(=O)(=O)c3ccc(C)cc3)C[C@H]21"
Reply: 0.938

Query: Item: OCCCC1=CC(c2ccc(CN3CCCC3)cc2)N(Cc2sc3ccccc3c2Cl)CC1 (configuration not stated) Test system: glycogen synthase kinase-3 (GSK3A per assay name; protocol says GSK3B) Read-out: composite z-score Value: ?
Reply: 1.3

Query: Reported composite z-score for glycogen synthase kinase-3 (GSK3A per assay name; protocol says GSK3B), given "CCOC(=O)C[C@H]1[C@H](OC(=O)c2ccccc2-c2ccccc2)[C@@H](NC(=O)C2CCCCC2)c2cc(OCCCO)ccc2N1C(=O)Cc1ccc(OC)cc1" ?
Reply: -0.625

Query: Record "CCCNC(=O)[C@@H]1c2ccccc2C(=O)N(C(C)C)[C@H]1c1ccc(CO)cc1" : what is its composite z-score with glycogen synthase kinase-3 (GSK3A per assay name; protocol says GSK3B)?
Reply: -0.307

Query: Record lookup: for glycogen synthase kinase-3 (GSK3A per assay name; protocol says GSK3B), what composite z-score belongs to "COc1ccc(-c2nc(-c3ccccc3)c3c(c2C)CO[Si]3(C(C)C)C(C)C)cn1" ?
Reply: 0.729

Query: Give glycogen synthase kinase-3 (GSK3A per assay name; protocol says GSK3B) composite z-score for "[N-]=[N+]=NCc1ccccc1C[C@]1(C(N)=O)N=C(c2ccc(OCCCO)cc2)O[C@H]1c1ccccc1"
Reply: 0.854

---

- Test method notes: E. coli DRC41 culture turbidity changes, primary screen, E. coli filamentation inducer project, strain DRC41, OD650, 48 h (AID 1152);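 further: E. coli MC1000 strain DRC41 lacking acrAB efflux pump and sulA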
- Condition set: E. coli DRC41 (acrAB sulA), higher = more signal, called active from +8 up or from −8 down
The source made the active and inactive calls.
Record form. Attribute: z-score. Fill in for each entry.

Query: Given the molecule "CCOC(=O)C[C@H]1[C@H](OC(=O)c2ccccc2-c2ccccc2)[C@@H](NC(=O)c2ccc(-c3ccccc3)cc2)c2cc(OCCCO)ccc2N1C(=O)c1ccc2ccccc2n1" , what is its reported z-score?
Reply: -0.485 (inactive)

Query: Please give the measured z-score for this molecule: "COc1ccc(NC(=O)O[C@H]2[C@H](OC(=O)Nc3ccccc3)[C@@H](OC(=O)Nc3ccccc3)[C@@H](OC)O[C@@H]2CO)cc1"
Reply: -0.302 (inactive)

Query: For the molecule shown here, CCC(CC)C(O)C1C=CC2C(=O)N(c3ccccc3)C(=O)C2N1Nc1ccc(C(C)C)cc1 (stereo not given) , give the reported z-score.
Reply: -0.636 (inactive)

Query: So what's the measured z-score for this one? CC1CC/C=C\[C@H]2OC34C=CCN(c5ccc(Cl)cc5)C(=O)[C@H]3N(CCCCCO)C(=O)[C@]4(C)C2C(=O)O1 (stereo not given in full)
Reply: -0.351 (inactive)

Query: Need z-score of "CO[C@]12C=C(Br)[C@@H](C[C@@H]1c1cccc(C)c1)[C@@]1(CO1)C2=O" , thanks.
Reply: -0.009 (inactive)

Query: Any idea what its z-score is? The molecule is "CCOC(=O)C[C@H]1[C@H](OC(=O)c2cc3ccccc3oc2=O)[C@@H](NC(=O)c2ccc(-c3ccccc3)cc2)c2cc(OCCCO)ccc2N1C(=O)c1ccc2ccccc2n1"
Reply: -0.216 (inactive)

Query: What value of z-score has been recorded for this entry: "COc1cc2c(cc1OC)CN(C(=O)[C@@H]1[C@H]3C(=O)O[C@H](c4ccccc4)[C@H](c4ccccc4)N3[C@H](c3ccc(OCCO)cc3)[C@@]13C(=O)Nc1ccc(C#CC4(O)CCCCCC4)cc13)CC2"
Reply: 3.13 (inactive)

Query: I'd like to know its z-score. The molecule in question is "C=CCNC(=O)[C@H]1[C@@H]2C(=O)O[C@@H](c3ccccc3)[C@@H](c3ccccc3)N2[C@@H](c2ccc(O)cc2)[C@]12C(=O)N(C(=O)OCCOC)c1ccccc12"
Reply: -0.0476 (inactive)

Query: Can you look up the measured z-score of "COc1ccccc1CN1C(=O)c2ccccc2[C@@]2(Cc3ccccc3N(CC(F)(F)F)C2=O)[C@@H]1c1ccc(CO)cc1" for me?
Reply: 0.254 (inactive)

Query: Requested field: z-score. Item: C=C(C)C1CCC(C(O)C2C=CC3C(=O)N(C)C(=O)C3N2N2CCCCC2)CC1 (stereo not given)
Reply: -1.09 (inactive)

Query: What value of measured z-score is listed for "COc1ccc(-c2nc(-c3ccccc3)c3c(c2C)CO[Si]3(C(C)C)C(C)C)cn1" ?
Reply: -1.41 (inactive)

Query: Need z-score of "CN(C)C(=O)[C@]1(CCS(=O)(=O)c2ccccc2)N=C(c2ccc(OCCCO)cc2)O[C@@H]1c1ccccc1N=[N+]=[N-]" , thanks.
Reply: -0.0791 (inactive)

Query: Sample C[C@H]1NC(=O)[C@@]23C(=O)N[C@@H](Cc4ccccc4)C2[C@H](C)[C@@]2(C)O[C@H]2C3/C=C/C/C=C\CNC(=O)[C@H](Cc2ccccc2)NC1=O (stereo not given in full) — what was its z-score?
Reply: -0.213 (inactive)

Query: # query: z-score of entry "C=CCOC(=O)[C@H]1[C@@H]2C(=O)O[C@@H](c3ccccc3)[C@@H](c3ccccc3)N2[C@@H](c2ccc(OCCOC(=O)[C@H]3C[C@H]4C(=O)N[C@@H](CCCCNC(C)=O)C(=O)N4[C@H]3c3ccc(O)cc3)cc2)[C@]12C(=O)Nc1ccccc12"
Reply: 3.24 (inactive)

Query: What value of z-score has been recorded for this entry: "COCCOC(=O)N1C(=O)[C@@]2(c3cc(C#Cc4ccc(OC)cc4)ccc31)[C@H](C(=O)Nc1nc3ccccc3s1)[C@H]1C(=O)O[C@H](c3ccccc3)[C@H](c3ccccc3)N1[C@@H]2c1ccc(O)cc1"
Reply: 1.05 (inactive)

Query: Can you share its z-score? I mean this molecule: "CC(C)[Si](C#C[Si](C(C)C)(C(C)C)C(C)C)(O[C@H](C)c1cn([C@H](CO)Cc2ccccc2)nn1)C(C)C"
Reply: 2.09 (inactive)

Query: // z-score lookup, key: O=C1OCCC=C[C@H]2OC34C=CCN(Cn5nnc6ccccc65)C(=O)[C@H]3N(CCCCCCO)C(=O)[C@@H]4C12 (stereo not given in full)
Reply: -0.051 (inactive)

Query: Dear colleague, I am looking for the recorded z-score of the following molecule: "COCCOC(=O)N1C(=O)[C@@]2(c3cc(C#CCNC(N)=O)ccc31)[C@H](C(=O)N1CCc3cc(OC)c(OC)cc3C1)[C@H]1C(=O)O[C@H](c3ccccc3)[C@H](c3ccccc3)N1[C@@H]2c1ccccc1OCCO"
Reply: 1.83 (inactive)

Query: Fill in the blank: the reported z-score of "COc1ccc(NC(=O)O[C@H]2[C@H](OC(=O)Nc3ccccc3)[C@H](OC(=O)Nc3ccccc3)[C@@H](OC)O[C@@H]2CO)cc1" is ____.
Reply: -1.37 (inactive)

Query: Which value of z-score has been reported for N#Cc1ccc(NN2C(C(O)c3ccc(F)cc3)C=CC3C(=O)N(c4ccccc4)C(=O)C32)cc1 (stereo not given) in the records?
Reply: -0.922 (inactive)

Query: Find the recorded z-score belonging to CN1C(=O)C2C=CC(C(O)C#Cc3ccccc3)N(Nc3ccccc3)C2C1=O (stereo not given) and report it.
Reply: -0.877 (inactive)

Query: Item under review: "CC(C)Cc1ccc(CN2CC[C@@H](NC(=O)Nc3ccccc3)C2)cc1" . Reported z-score?
Reply: -3.31 (inactive)

Query: Can you look up the measured z-score of O=C1NC(=O)C2C1C=CC(C(O)CCc1ccccc1)N2Nc1ccc(Cl)cc1Cl (stereo not given) for me?
Reply: -1.34 (inactive)

Query: Fill in the blank: the reported z-score of "CCOC(=O)C1=CC[C@@H](c2cccc(Cl)c2)N(S(=O)(=O)c2ccc(C)cc2)C1" is ____.
Reply: 0.065 (inactive)

Query: I would be grateful if you could share the reported z-score for "CC(C)N1C(=O)C[C@@](C(=O)NCCCN(C)C)(c2ccc([N+](=O)[O-])cc2)[C@H]1c1ccc(CO)cc1" .
Reply: -0.898 (inactive)

Query: Looking for the measured z-score of "COc1ccc([Si](C)(C)[C@@H]2[C@@H](CC(=O)N3Cc4ccccc4C[C@H]3CO)O[C@]3(C(=O)N(C)c4ccccc43)[C@H]2C)cc1" , can you help?
Reply: -0.883 (inactive)

Query: GET /values?readout=z-score&item= COC(=O)C1=CC(CCCO)=CC(C2CC2)N(C)C=C1C(=O)OC (stereo not given)
Reply: 1.22 (inactive)

Query: Param item = C=CC1c2cc(O)c(OC)cc2CCN1Cc1cc2c(cc1Br)OCO2 (stereo not given) ; retrieve measured z-score.
Reply: -1.93 (inactive)

Query: Looking for the measured z-score of "COC(=O)c1c2oc(c1C(=O)OC)C(=O)N(Cc1ccccc1)Cc1cn(nn1)C[C@H](Cc1ccccc1)NC(=O)N[C@H](CO)CC2" , can you help?
Reply: 0.959 (inactive)

Query: May I ask what z-score has been recorded for "CCOC(=O)C[C@H]1[C@H](OC(=O)Cc2ccc3c(c2)OCO3)[C@@H](NC(=O)Cc2ccc(OC)cc2)c2cc(OCCCO)ccc2N1C(=O)c1ccc2ccccc2n1" ?
Reply: 2.96 (inactive)

meta.source: PubChem BioAssay
